# reported % inhibition 1 µg/ml, N = 1 (HUVEC proliferation on coated DLL4); entries follow
# System: DLL4 extracellular domain (R&D systems, catalog #1506-D4/CF) (UniProt Q9NR61 27-529, limits assumed)
# Sequence (Q9NR61 27-529 limits assumed): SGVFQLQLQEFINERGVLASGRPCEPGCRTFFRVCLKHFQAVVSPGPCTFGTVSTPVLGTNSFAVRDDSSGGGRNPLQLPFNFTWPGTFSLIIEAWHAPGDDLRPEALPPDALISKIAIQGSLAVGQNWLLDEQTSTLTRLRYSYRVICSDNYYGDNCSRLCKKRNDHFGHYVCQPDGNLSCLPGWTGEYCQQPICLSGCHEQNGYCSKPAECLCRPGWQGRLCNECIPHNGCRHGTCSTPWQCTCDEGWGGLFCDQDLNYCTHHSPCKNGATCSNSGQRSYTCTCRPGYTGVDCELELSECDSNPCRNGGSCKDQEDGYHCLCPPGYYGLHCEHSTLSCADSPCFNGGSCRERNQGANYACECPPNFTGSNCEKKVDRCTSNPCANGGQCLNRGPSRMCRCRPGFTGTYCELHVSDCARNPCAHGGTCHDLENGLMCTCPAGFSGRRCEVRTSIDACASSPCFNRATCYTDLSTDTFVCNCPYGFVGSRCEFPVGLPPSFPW
# Measurement description: cell-based or functional assay
Kindly provide the numeric value in % only, without the unit symbol.

Below, 4 binders whose answers are already recorded.
Binder | Unit of measure | Observed value
3A7 (antibody, IgG4, V domains shown, Fully human; also used where no isotype is printed) VH: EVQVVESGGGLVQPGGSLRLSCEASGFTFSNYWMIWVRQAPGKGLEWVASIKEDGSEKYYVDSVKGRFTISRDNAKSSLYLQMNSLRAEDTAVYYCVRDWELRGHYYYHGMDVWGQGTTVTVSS VL: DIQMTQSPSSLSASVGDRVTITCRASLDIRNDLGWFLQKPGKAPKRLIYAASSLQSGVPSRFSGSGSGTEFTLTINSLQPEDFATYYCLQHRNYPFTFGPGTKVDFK | % | 50
21H3 (antibody, IgG4, V domains shown, Fully human; used for IgG4 rows and where no isotype is printed; also called 21H3 IgG4) VH: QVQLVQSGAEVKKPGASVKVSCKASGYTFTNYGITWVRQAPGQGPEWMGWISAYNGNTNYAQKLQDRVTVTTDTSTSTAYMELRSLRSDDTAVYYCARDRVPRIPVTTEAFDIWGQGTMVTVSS VL: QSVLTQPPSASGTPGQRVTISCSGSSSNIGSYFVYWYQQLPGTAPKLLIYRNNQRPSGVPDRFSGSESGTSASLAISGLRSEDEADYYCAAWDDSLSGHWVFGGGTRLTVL | % | 86
9G8 (antibody, IgG4, V domains shown, Fully human; used for IgG4 rows and where no isotype is printed; also called 9G8 IgG4) VH: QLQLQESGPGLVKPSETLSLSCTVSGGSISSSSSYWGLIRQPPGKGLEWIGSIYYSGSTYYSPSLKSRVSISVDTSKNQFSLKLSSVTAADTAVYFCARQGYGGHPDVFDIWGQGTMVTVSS VL: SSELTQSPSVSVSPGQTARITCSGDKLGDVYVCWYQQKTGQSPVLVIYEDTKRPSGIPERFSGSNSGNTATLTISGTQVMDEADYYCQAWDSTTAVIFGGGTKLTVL | % | 52
2H10 (antibody, IgG4, V domains shown, Fully human; used for IgG4 rows and where no isotype is printed; also called 2H10 IgG4) VH: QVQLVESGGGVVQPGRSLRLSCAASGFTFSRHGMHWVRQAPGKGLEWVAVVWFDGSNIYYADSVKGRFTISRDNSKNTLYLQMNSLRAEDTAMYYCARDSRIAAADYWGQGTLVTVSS VL: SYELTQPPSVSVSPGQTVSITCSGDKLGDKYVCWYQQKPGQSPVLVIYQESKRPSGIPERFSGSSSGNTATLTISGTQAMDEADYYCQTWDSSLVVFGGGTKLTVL | % | 98

Next:
Please look at this binder and report its % inhibition 1 µg/ml, N = 1 (HUVEC proliferation on coated DLL4): 1D4 (antibody, IgG4, V domains shown, Fully human XenoMouse antibody; also used where no isotype is printed) VH: QLQLQESGPGLVKPSETLSLTCTVSGGSISSSSYYWGWIRQPPGKGLEWIGSFYYSRSTYYNPSLKSRVTISVDTSKNQFSLKLSSVTAADTAVHYCARGSIAVPDAFDIWGQGTMVTVSS VL: SYELTQPPSVSVSPGQTASITCSGDKLGDKFACWYQQKPGHSPVLVVYQDNKRPSGIPERFSGSNSGNSATLTISGTQAMDEADYYCQAWDSNTAVFGGGTKLTVL 43
